Provenance of the data: patent US20240182556A1

# System: T1, PE9413, C-terminal biotinylated peptide mapping on Exon6 of the SCF molecule (SCF248) (C-terminal biotin)
# T1 construct: also called C-terminal biotinylated PE9413; C-ter PE9413
# T1 peptide: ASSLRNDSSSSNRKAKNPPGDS
# Test: yeast-displayed scFv, flow cytometry titration of biotinylated peptide
Quantity: pKd
Just so you know, pKd here is -log10 of the concentration in molar units; reply with that number alone.

Query: Reported pKd, binder H74P scFv displayed on yeast (scFv, V domains shown, Aga2-anchored, VH-VL orientation; not shown: linker; SV5 tag) VH: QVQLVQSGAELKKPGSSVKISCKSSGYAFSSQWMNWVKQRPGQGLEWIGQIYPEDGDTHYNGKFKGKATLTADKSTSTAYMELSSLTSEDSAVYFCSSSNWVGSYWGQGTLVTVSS VL: DVVMTQSPLSLPVTLGQPASISCKSSQSLLEEDGNTYLNWLQQRPGQSPRRLIYLVDRLDLGVPDRFSGSGSGTDFTLKISRVEAEDVGVYYCWQGSHLPQTFGGGTKVEIK : ____
Response: 8.42

Query: Field request: pKd | item: D14P scFv displayed on yeast (scFv, V domains shown, Aga2-anchored, VH-VL orientation; not shown: linker; SV5 tag) VH: QVQLVQSGAELKKPGSSVKISCKSSGYAFSSQWMNWVKQRPGQGLEWIGQIYPGDDDTHYNDKFKGKATLTADKSTSTAYMELSSLTSEDSAVYFCSSSNWVGSYWGQGTLVTVSS VL: DVVMTQSPLSLPVTLGQPASISCKSSQSLLESDGNTYLNWLQQRPGQSPRRLIYLVDRLDLGVPDRFSGSGSGTDFTLKISRVEAEDVGVYYCWQGTDLPQTFGGGTKVEIK
Response: 8.36

Query: GET /values?readout=pKd&item= B34P scFv displayed on yeast (scFv, V domains shown, Aga2-anchored, VH-VL orientation; not shown: linker; SV5 tag) VH: QVQLVQSGAELKKPGSSVKISCKSSGYAFSSNWMNWVKQRPGQGLEWIGQIYPEDGDTHYNDKFKGKATLTADKSTSTAYMELSSLTSEDSAVYFCSSSNWVGSYWGQGTLVTVSS VL: DVVMTQSPLSLPVTLGQPASISCKSSQSLLESDGNTYLNWLQQRPGQSPRRLIYLVSRRDSGVPDRFSGSGSGTDFTLKISRVEAEDVGVYYCWQGTDLPQTFGGGTKVEIK
Response: 8.30

Query: Can you share its pKd? I mean this binder: D124P scFv displayed on yeast (scFv, V domains shown, Aga2-anchored, VH-VL orientation; not shown: linker; SV5 tag) VH: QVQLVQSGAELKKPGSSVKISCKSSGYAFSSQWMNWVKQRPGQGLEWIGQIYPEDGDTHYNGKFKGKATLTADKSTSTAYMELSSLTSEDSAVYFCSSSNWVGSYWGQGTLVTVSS VL: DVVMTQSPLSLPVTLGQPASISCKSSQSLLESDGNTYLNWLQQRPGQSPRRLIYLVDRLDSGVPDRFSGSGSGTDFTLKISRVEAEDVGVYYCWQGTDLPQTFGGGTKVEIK
Response: 8.16
